molecular target: TYK2(Kin.Dom.2) (Homo sapiens, UniProt P29597); construct: TYK2(Kin.Dom.2); purchased DiscoverX (KINOMEscan); experiment: KINOMEscan competitive binding; conditions: n=1, read-out: Percent inhibition, TYK2(Kin.Dom.2)
Sequence (P29597 889-1187 limits assumed): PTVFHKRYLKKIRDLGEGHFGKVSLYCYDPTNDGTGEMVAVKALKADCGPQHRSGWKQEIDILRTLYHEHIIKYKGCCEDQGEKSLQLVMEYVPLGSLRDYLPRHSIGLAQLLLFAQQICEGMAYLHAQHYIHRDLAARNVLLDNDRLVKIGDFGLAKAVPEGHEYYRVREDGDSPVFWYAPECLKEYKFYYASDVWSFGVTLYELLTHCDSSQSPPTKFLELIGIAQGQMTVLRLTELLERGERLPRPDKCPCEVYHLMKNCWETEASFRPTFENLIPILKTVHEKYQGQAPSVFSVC
# maps each entry to its inhibition at 10 µM
The answer consists of two parts: a number and, after it, its unit.

*Q* Quick check: inhibition at 10 µM of `CN1CCN(c2ccc(Nc3nccc(-c4cnn5ncccc45)n3)cc2C#N)CC1` ?
*A* 88.2%

*Q* Reported inhibition at 10 µM, molecule `Nc1ncc2c(-c3ccncc3)c[nH]c2n1` : ____
*A* 0%

###

# inhibition at 10 µM annotations
molecular target: panel of 203 kinases (Homo sapiens, UniProt Q5VT25); construct: purchased DiscoverX (KINOMEscan); assay: KINOMEscan competitive binding, whole panel; conditions: 10 µM, n=1; kinase MRCKA; read-out: Percent inhibition MRCKA
Sequence (Q5VT25 whole entry): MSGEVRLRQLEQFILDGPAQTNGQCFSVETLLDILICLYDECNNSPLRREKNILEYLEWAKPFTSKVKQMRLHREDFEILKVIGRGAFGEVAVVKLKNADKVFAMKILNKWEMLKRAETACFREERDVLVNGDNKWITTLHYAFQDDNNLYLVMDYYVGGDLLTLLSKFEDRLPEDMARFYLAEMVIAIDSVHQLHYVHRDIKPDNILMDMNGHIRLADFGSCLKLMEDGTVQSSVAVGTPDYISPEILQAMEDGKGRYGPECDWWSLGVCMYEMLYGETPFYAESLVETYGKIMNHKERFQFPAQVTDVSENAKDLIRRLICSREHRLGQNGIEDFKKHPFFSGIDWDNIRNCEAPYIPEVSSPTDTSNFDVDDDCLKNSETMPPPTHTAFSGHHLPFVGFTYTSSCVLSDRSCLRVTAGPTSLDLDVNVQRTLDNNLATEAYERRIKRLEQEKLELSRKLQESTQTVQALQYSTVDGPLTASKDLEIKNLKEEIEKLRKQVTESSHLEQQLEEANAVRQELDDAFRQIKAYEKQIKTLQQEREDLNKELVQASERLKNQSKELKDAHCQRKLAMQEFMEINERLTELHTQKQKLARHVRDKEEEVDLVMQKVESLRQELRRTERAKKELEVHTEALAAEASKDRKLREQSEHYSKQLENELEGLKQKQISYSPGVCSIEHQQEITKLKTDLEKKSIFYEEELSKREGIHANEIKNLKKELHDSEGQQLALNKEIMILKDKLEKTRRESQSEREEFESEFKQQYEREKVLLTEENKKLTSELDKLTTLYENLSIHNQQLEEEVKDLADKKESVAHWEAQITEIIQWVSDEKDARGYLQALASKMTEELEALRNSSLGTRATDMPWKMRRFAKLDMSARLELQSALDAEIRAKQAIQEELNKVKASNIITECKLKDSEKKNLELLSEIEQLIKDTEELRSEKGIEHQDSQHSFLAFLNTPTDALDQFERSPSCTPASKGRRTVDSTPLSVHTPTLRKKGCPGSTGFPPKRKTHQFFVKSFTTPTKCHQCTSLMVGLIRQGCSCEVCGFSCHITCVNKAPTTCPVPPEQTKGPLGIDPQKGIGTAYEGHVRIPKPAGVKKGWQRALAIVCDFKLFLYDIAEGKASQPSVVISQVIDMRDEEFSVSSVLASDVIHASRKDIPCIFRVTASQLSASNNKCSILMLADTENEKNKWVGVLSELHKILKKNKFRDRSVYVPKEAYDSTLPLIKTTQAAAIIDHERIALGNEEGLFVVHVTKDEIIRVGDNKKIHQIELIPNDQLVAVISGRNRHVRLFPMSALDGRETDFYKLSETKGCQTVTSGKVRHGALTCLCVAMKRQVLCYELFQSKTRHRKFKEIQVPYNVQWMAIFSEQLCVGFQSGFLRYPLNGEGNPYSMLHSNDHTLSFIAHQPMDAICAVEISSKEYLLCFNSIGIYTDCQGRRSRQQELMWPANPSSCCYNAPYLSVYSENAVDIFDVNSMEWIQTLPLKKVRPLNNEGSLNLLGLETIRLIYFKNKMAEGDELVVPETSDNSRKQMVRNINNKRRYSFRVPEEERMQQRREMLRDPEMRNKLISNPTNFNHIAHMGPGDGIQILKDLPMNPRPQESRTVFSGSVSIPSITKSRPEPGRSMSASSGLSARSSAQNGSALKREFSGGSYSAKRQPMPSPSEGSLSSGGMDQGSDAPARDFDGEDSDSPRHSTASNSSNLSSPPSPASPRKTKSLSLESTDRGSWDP
Expressed in %, but write only the number.

Guide cases for inhibition at 10 µM, answers given:
Fc1cccc(COc2ccc(Nc3ncnc4c3CN(CCN3CCOCC3)CC4)cc2Cl)c1 :: 0
Cc1ccc(O)cc1N(C)c1ccnc(Nc2cccc(S(N)(=O)=O)c2)n1 :: 87
COc1cc(Nc2nccc(-c3sc(N)nc3-c3cccc(NC(=O)c4c(F)cccc4F)c3)n2)cc(OC)c1OC :: 100
COc1ccc(Nc2nccc(-c3cnn4ncccc34)n2)cc1 :: 0

Now for the compound whose inhibition at 10 µM we want.
*Q* Form field: reported inhibition at 10 µM of `CN1CCN(c2ccc(Nc3nccc(-c4cnn5ncccc45)n3)cc2C#N)CC1`
*A* 0

###

Here the recorded inhibition at 10 µM is given for each entry.
target: panel of 203 kinases (Homo sapiens); construct: purchased DiscoverX (KINOMEscan); assay: KINOMEscan competitive binding, whole panel; conditions: 10 µM, n=1; kinase CAMK1; read-out: Percent inhibition CAMK1
A number alone suffices; assume %.

Clc1ccc(Nc2ncc(-c3ccccc3)s2)cc1 :: 0

*Q* Given the compound `COc1cc(Nc2nccc(-c3sc(N)nc3-c3cccc(NC(=O)c4c(F)cccc4F)c3)n2)cc(OC)c1OC` , what is its reported inhibition at 10 µM?
*A* 91.5

*Q* Which inhibition at 10 µM reading was recorded for the compound `Nc1ncc2c(-c3ccncc3)c[nH]c2n1` ?
*A* 0

*Q* Give its inhibition at 10 µM value. Item: `Cc1ccc(O)cc1N(C)c1ccnc(Nc2cccc(S(N)(=O)=O)c2)n1`
*A* 0

*Q* Suppose we examine the compound `CN1CCN(c2ccc(Nc3nccc(-c4cnn5ncccc45)n3)cc2C#N)CC1` ; what inhibition at 10 µM value has been reported?
*A* 92.3

###

molecular target: JAK1(JH2) (Homo sapiens, UniProt P23458); construct: JAK1(JH2); purchased DiscoverX (KINOMEscan); assay: KINOMEscan competitive binding; conditions: 10 µM, n=1; kinase JAK1(Kin.Dom.1); read-out: Percent inhibition JAK1(Kin.Dom.1)
Sequence (P23458 583-855 limits assumed): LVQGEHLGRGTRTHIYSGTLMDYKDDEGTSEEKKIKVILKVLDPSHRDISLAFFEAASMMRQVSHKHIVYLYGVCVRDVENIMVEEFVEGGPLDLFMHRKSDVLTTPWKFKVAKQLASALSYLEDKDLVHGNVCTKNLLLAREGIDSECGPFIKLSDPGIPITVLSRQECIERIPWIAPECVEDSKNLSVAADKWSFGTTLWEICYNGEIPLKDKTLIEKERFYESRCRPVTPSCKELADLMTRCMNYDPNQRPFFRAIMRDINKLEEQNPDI
observed-property: inhibition at 10 µM (%)
Numbers only here, please. The scale is %.

Cc1ccc(O)cc1Nc1ccnc(Nc2cccc(C(N)=O)c2)n1 :: 0

*Q* What value of inhibition at 10 µM has been reported for the following compound? `C[C@@H](Oc1cc(-c2cnc3ccccn23)sc1C(N)=O)c1ccccc1Cl`
*A* 87.8

*Q* State the recorded inhibition at 10 µM for this entry: `CN1CCN(c2ccc(Nc3nccc(-c4cnn5ncccc45)n3)cc2C#N)CC1`
*A* 100

*Q* Requested read-out: inhibition at 10 µM. Entry: `Fc1cccc(COc2ccc(Nc3ncnc4c3CN(CCN3CCOCC3)CC4)cc2Cl)c1`
*A* 0

*Q* Record request: inhibition at 10 µM value, item `COc1ccc(Nc2nccc(-c3cnn4ncccc34)n2)cc1`
*A* 95.5
